targetUnderTest: T1, cynomolgus CD47, on CHOK1-cCD47 stable cell line (cynomolgus)
T1 construct: whole, on cells; check before use; also called CHOK1/cynoCD47; monkey-derived CD47
procedureDetails: FACS CHOK1-cCD47; Ab 40 nM

binder	mean fluorescence intensity
54G8G6 (antibody, V domains shown, Murine hybridoma antibody purified on protein G) VH: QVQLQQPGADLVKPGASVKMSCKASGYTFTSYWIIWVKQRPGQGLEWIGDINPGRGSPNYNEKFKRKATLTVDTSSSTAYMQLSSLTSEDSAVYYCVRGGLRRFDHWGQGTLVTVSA VL: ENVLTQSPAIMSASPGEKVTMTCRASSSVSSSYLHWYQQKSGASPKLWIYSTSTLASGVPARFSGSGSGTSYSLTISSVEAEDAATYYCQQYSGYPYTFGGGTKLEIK	21200
20H4G5 (antibody, V domains shown, Murine hybridoma antibody purified on protein G) VH: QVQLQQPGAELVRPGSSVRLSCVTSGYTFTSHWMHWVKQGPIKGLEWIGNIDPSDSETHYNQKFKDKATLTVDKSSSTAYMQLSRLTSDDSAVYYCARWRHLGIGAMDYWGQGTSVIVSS VL: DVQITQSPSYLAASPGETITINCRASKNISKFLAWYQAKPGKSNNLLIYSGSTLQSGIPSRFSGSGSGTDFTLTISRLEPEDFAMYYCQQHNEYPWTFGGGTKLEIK	13400
4D10B11 (antibody, V domains shown, Murine hybridoma antibody purified on protein G) VH: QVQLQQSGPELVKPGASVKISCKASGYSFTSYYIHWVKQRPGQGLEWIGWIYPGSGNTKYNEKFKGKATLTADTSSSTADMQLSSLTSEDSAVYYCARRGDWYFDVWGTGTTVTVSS VL: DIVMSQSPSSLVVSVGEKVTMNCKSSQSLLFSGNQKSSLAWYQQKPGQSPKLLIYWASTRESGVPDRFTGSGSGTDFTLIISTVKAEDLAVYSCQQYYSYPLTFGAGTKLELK	13900
